What T/C was measured for each of the following?
test system: BDF1 mice, B16 melanoma ip, median survival T/C; assay: NCI In Vivo Anticancer Drug Screen. Data for tumor model B16 Melanoma (intraperitoneal) in B6D2F1 (BDF1) mice; conditions: endpoint: median survival time; dose: 200.0 mg/kg/injection; schedule: Q01DX009 (ip); vehicle: saline; higher = longer survival
Inconclusive results and toxic doses are left out. Square brackets hold non-standard residues; d marks the D form. Peptide text beside a SMILES is read from it. * marks the point of attachment. ξ: configuration not given here. Boc = CC(C)(C)OC(=O)*; ξP = O=C(O)C1CCCN1

Form field T/C for item NCCS(=O)(=O)O on BDF1 mice, B16 melanoma ip, median survival T/C: 107 % of control

Hey, BDF1 mice, B16 melanoma ip, median survival T/C data for CCN(CC)CCCC#CCN1CCOCC1 : T/C came out at 100 % of control

Entry COc1cc(-c2ccc(N=Nc3cc(S(=O)(=O)O)c4ccccc4c3O)c(OC)c2)ccc1N=Nc1cc(S(=O)(=O)O)c2ccccc2c1O , BDF1 mice, B16 melanoma ip, median survival T/C data, T/C value: 89 % of control

T/C of CC(=O)CC(=O)N1CCN(C(=O)CC(C)=O)CC1 , assay on BDF1 mice, B16 melanoma ip, median survival T/C, is 87 % of control

Case CC(=O)C(N)CCC(=O)O (configuration not stated) , BDF1 mice, B16 melanoma ip, median survival T/C, T/C recorded as 97 % of control

Fill in: BDF1 mice, B16 melanoma ip, median survival T/C T/C for O=c1[nH][nH]c(=O)n1O = 103 % of control

Considering CC(NC(=O)C(C)NC(=O)C(N)CCC(=O)O)C(=O)O (stereo not drawn) (H-Glu-Ala-Ala-OH; configuration not given here) , its T/C with BDF1 mice, B16 melanoma ip, median survival T/C was recorded as 105 % of control

# lookup: COC(=O)C1CCCN1C(=O)CNC(=O)OC(C)(C)C (stereo not drawn) (Boc-Gly-[ξP]-OMe) on BDF1 mice, B16 melanoma ip, median survival T/C, T/C = 91 % of control

# T/C measured on BDF1 mice, B16 melanoma ip, median survival T/C for item CCN(C=O)CC = 115 % of control

Record for CC(C)NCC(=O)c1ccc(O)c(O)c1 under target or system BDF1 mice, B16 melanoma ip, median survival T/C: T/C reported as 106 % of control

Summary: NC(=O)NOCC1NC(=O)C(CONC(N)=O)NC1=O (configuration not stated) , BDF1 mice, B16 melanoma ip, median survival T/C, T/C = 94 % of control

Observed T/C on BDF1 mice, B16 melanoma ip, median survival T/C, entry COCC(O)Cn1ccnc1[N+](=O)[O-] (configuration not stated) , equals 107 % of control

----------
test system: BDF1 mice, B16 melanoma ip, median survival T/C; assay: NCI In Vivo Anticancer Drug Screen. Data for tumor model B16 Melanoma (intraperitoneal) in B6D2F1 (BDF1) mice; conditions: endpoint: median survival time; dose: 6.25 mg/kg/injection; schedule: Q01DX009 (ip); vehicle: saline; higher = longer survival
Inconclusive results and toxic doses are left out.
propertyLabel: T/C

T/C of C[N+](C)(C)c1ncnc2c1ncn2C1CCCO1 (configuration not stated) , assay on BDF1 mice, B16 melanoma ip, median survival T/C, is 111 % of control

Fill in: BDF1 mice, B16 melanoma ip, median survival T/C T/C for O=C(NCCCN1CC1)C(=O)NCCCN1CC1 = 96 % of control

Item CC(C)NC1C2CCC(CC2)C1(O)c1ccc(Cl)c(Cl)c1 (configuration not stated) was tested on BDF1 mice, B16 melanoma ip, median survival T/C; the reported T/C is 104 % of control

The reported BDF1 mice, B16 melanoma ip, median survival T/C T/C of COc1cc(OC)cc(C(O)C(C)NC(C)C)c1 (configuration not stated) is 112 % of control

Record N#CCCCN1CCCCC1 has BDF1 mice, B16 melanoma ip, median survival T/C T/C equal to 100 % of control

Value (T/C, BDF1 mice, B16 melanoma ip, median survival T/C) for record Cc1ccc(Oc2ccc3cc[n+](C)cc3c2)cc1 = 98 % of control

# COC(=O)C(c1ccccc1)C1CCCCN1 (configuration not stated) with BDF1 mice, B16 melanoma ip, median survival T/C: T/C is 100 % of control

The measured T/C that O=C1OC2CC1(O)CC(O)C2O (configuration not stated) showed for BDF1 mice, B16 melanoma ip, median survival T/C is 111 % of control

Reading of T/C for c1nnc(NCNc2nncs2)s1 with BDF1 mice, B16 melanoma ip, median survival T/C: 108 % of control

For O=C1NC(c2ccccc2)C(=O)N1CCN(CCCl)CCCl (configuration not stated) on BDF1 mice, B16 melanoma ip, median survival T/C, measured T/C was 123 % of control

Simply: OCCOCCN1CCN(C(c2ccccc2)c2ccc(Cl)cc2)CC1 (configuration not stated) , BDF1 mice, B16 melanoma ip, median survival T/C, T/C = 102 % of control

// assay BDF1 mice, B16 melanoma ip, median survival T/C, entry CC(C(=O)N1c2ccccc2Sc2ccccc21)[N+]1(C)CCCC1 (configuration not stated) , T/C value = 93 % of control

Entry CN(C)/N=N/c1nc[nH]c1C(N)=O under BDF1 mice, B16 melanoma ip, median survival T/C had T/C of 110 % of control

Reported T/C (BDF1 mice, B16 melanoma ip, median survival T/C) for entry Cc1cn(C2CC(F)C(CO)O2)c(=O)[nH]c1=O (configuration not stated) is 108 % of control

Record O=C(O)CC(NC(=O)OCc1ccccc1)C(=O)O (configuration not stated) ; system BDF1 mice, B16 melanoma ip, median survival T/C; T/C = 92 % of control

Bench note, BDF1 mice, B16 melanoma ip, median survival T/C: entry CCC1(CC)COC(=O)NC1=O , its T/C = 105 % of control

Bench note, BDF1 mice, B16 melanoma ip, median survival T/C: entry CC(=O)CC(C)=O.CC(=O)CC(C)=O.CC(=O)CC(C)=O.[V] , its T/C = 89 % of control

# CC1(C)COCN1COCCOCN1COCC1(C)C with BDF1 mice, B16 melanoma ip, median survival T/C: T/C is 102 % of control

Entry CNC(=O)Oc1c(C)occc1=O , BDF1 mice, B16 melanoma ip, median survival T/C data, T/C value: 100 % of control

Reported BDF1 mice, B16 melanoma ip, median survival T/C T/C for item CCCCCCCCCCCCCCCCP(=O)(OCCOCCCCCC)OCCOCCCCCC was 116 % of control

Entry CC(CN1c2ccccc2Sc2cccnc21)N(C)C (configuration not stated) , BDF1 mice, B16 melanoma ip, median survival T/C data, T/C value: 107 % of control

T/C of Nc1c2c(nc3ccccc13)CCCC2 , assay on BDF1 mice, B16 melanoma ip, median survival T/C, is 91 % of control

----------
test system: BDF1 mice, B16 melanoma ip, median survival T/C; assay: NCI In Vivo Anticancer Drug Screen. Data for tumor model B16 Melanoma (intraperitoneal) in B6D2F1 (BDF1) mice; conditions: endpoint: median survival time; dose: 0.09 mg/kg/injection; schedule: Q01DX009 (ip); vehicle: Klucel (hydroxypropylcellulose) (HPC); higher = longer survival
Toxic doses and inconclusive results are not listed.
propertyLabel: T/C

Item: CC(=O)[O][Pb]([CH2]C(C)C)([CH2]C(C)C)[CH2]C(C)C | T/C: 94 % of control

Data point: Cc1ccc(C(=O)[O][Hg][CH2]C2COC([CH2][Hg][O]C(=O)c3ccc(C)cc3)CO2)cc1 (stereo not given) ; T/C = 92 % of control

T/C recorded for this molecule, N=c1c2ncn(Cc3cccc(C(F)(F)F)c3)c2ncn1O , is 93 % of control

The molecule listed as CCCCCCCCCCCC[N+]1(CCCCCCCCCCCC)CCCC(C)C1 (stereo not given) has a reported T/C of 95 % of control

For this molecule ( CN1C(=O)CN=C(c2ccccc2)c2cc(Cl)ccc21 ), measured T/C is 104 % of control

----------
Field: T/C. Provide a value for each of the compounds that follow.
test system: BDF1 mice, B16 melanoma ip, median survival T/C; test: NCI In Vivo Anticancer Drug Screen. Data for tumor model B16 Melanoma (intraperitoneal) in B6D2F1 (BDF1) mice; conditions: endpoint: median survival time; dose: 1.56 mg/kg/injection; schedule: Q01DX009 (ip); vehicle: saline; higher = longer survival
Inconclusive results and toxic doses are left out.

Just so you know, measured T/C for CN1C2CCC1CC(OC(c1ccccc1)c1ccccc1)C2 (centres undefined) came out at 102 % of control

Documented T/C of CN1CCN(CCCN2c3ccccc3Sc3ccc(C(F)(F)F)cc32)CC1 : 102 % of control

# compound CC(C)NC1C2CCC(CC2)C1(O)c1ccc(Cl)c(Cl)c1 (centres undefined) ; its T/C = 107 % of control

Entry COc1ccc2c(=O)c(C)c(-c3ccccc3)oc2c1CN(C)C ; T/C = 96 % of control

// field: T/C; key: CCN1C(=O)CC2(CCN(C)CC2)C1=O ; value = 117 % of control

Summary for this compound, CC(=O)c1ccc2c(c1)N(CCCN1CCN(CCO)CC1)c1ccccc1S2 : T/C is 103 % of control

T/C recorded for this compound, O=C(O)CC(NC(=O)OCc1ccccc1)C(=O)O (centres undefined) , is 98 % of control

Notebook: C[NH-].C[NH-].[Cl][Pt+2][Cl] , T/C read as 112 % of control

// O=C(CCCN1CCC2(CC1)C(=O)NCN2c1ccccc1)c1ccc(F)cc1 : T/C value = 94 % of control

The reported numbers originate from PubChem BioAssay AID192.
